target: Free fatty acid receptor 1 (Rattus norvegicus, UniProt Q8K3T4); assay: Displacement of 3-[4-({2',6'-dimethyl-6-[(4-[3H])-phenylmethoxy]biphenyl-3-yl}methoxy)phenyl]propanoic acid from rat GPR40 expressed in CHO cells after 90 mins by liquid scintillation counting in the presence of 0.2%BSA
Sequence (Q8K3T4 whole entry): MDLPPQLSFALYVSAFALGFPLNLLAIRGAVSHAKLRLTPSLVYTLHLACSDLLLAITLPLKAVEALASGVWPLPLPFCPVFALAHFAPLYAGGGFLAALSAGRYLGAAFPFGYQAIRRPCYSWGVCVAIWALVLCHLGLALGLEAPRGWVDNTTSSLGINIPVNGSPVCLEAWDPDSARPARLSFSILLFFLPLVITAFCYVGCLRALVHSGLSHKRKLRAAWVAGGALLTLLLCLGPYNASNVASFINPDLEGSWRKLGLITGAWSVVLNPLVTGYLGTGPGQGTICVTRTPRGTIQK
Classification by Ki follows these ranges: I (below 100 nM), II (100 nM to below 200 nM), III (200 nM or more)

In: Form field 'band' for Cc1c(C)c(-c2cccc(COc3ccc4c(c3)OC[C@H]4CC(=O)O)c2)c(C)c(C)c1OCCCS(C)(=O)=O
Out: II

In: Categorize the following entry: Cc1cc(OC2CCS(=O)(=O)CC2)cc(C)c1-c1cccc(COc2ccc3c(c2)OC[C@@H]3CC(=O)O)c1
Out: III

In: Categorize the following entry: Cc1cc(OCC2(C)COC2)cc(C)c1-c1cccc(COc2ccc3c(c2)OC[C@@H]3CC(=O)O)c1
Out: III

In: Which Ki category applies to Cc1cc(OCC2(C)COC2)cc(C)c1-c1cccc(COc2ccc3c(c2)OC[C@H]3CC(=O)O)c1 here?
Out: II

In: Exam item: assign Cc1cc(OCc2cccc3nccn23)cc(C)c1-c1cccc(COc2ccc3c(c2)OC[C@H]3CC(=O)O)c1 to the correct category.
Out: II

In: For Cc1cc(OCC2(O)CCS(=O)(=O)CC2)cc(C)c1-c1cccc(COc2ccc3c(c2)OC[C@H]3CC(=O)O)c1 , which Ki bin applies?
Out: II

In: Consider Cc1cc(OCCCS(C)(=O)=O)c(Cl)c(C)c1-c1cccc(COc2ccc3c(c2)OC[C@H]3CC(=O)O)c1 . To which Ki class does it belong?
Out: II

In: Into which bin does this compound go? Cc1c(Cl)c(OCCCS(C)(=O)=O)c(Cl)c(C)c1-c1cccc(COc2ccc3c(c2)OC[C@H]3CC(=O)O)c1
Out: I

In: Quick check: band for Cc1cc(OC2CCS(=O)(=O)CC2)c(F)c(C)c1-c1cccc(COc2ccc3c(c2)OC[C@H]3CC(=O)O)c1
Out: III

In: # bin lookup: classify Cc1cc(OC2CCS(=O)(=O)CC2)cc(C)c1-c1cccc(COc2ccc3c(c2)OC[C@H]3CC(=O)O)c1 by its Ki
Out: II

In: # bin lookup: classify CCS(=O)(=O)CCOc1cc(C)c(-c2cccc(COc3ccc4c(c3)OC[C@H]4CC(=O)O)c2)c(C)c1 by its Ki
Out: II

In: Assign a category based on measured Ki for CCc1cc(OCCCS(C)(=O)=O)cc(CC)c1-c1cccc(COc2ccc3c(c2)OC[C@H]3CC(=O)O)c1 and give only the class name.
Out: I

In: State the class of the compound shown: Cc1cc(OCC2(C)COC2)cc(C)c1-c1cccc(COc2ccc3c(c2)OCC3CC(=O)O)c1 (racemic)
Out: I

In: Could you place Cc1nc(C)c(COc2cc(C)c(-c3cccc(COc4ccc5c(c4)OC[C@H]5CC(=O)O)c3)c(C)c2)s1 in its proper category? Many thanks.
Out: III

In: For this compound, which bin applies? Cc1c(C)c(-c2cccc(COc3ccc4c(c3)OC[C@H]4CC(=O)O)c2)c(C)c(C)c1OC1CCS(=O)(=O)CC1
Out: III

All values here come from ChEMBL document CHEMBL2046398.
